B1: library; a variant is named by its letters at N, in order (parent)
chain: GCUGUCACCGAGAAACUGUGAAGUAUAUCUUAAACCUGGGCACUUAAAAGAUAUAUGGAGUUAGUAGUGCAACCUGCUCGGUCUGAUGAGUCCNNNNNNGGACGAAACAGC

Variants of: B1
Assay: normalized RNA/DNA level with ligand (relative to sTRSVctl = 100) (log10 (% of sTRSVctl)); HEK293T; ligand: cyclic di-GMP (c-di-GMP-II aptamer); ligand concentration (+) RNA-Seq: 1 mM; higher = less ribozyme self-cleavage, higher mRNA level
Settings: reporter: mCherry (pCS4076), ligand present: yes
Provide the reported normalized RNA/DNA level with ligand (log10) of each item.
Give bare numbers.

Solved cases below.
GCUGUCACCGAGAAACUGUGAAGUAUAUCUUAAACCUGGGCACUUAAAAGAUAUAUGGAGUUAGUAGUGCAACCUGCUCGGUCUGAUGAGUCCUAUAACGGACGAAACAGC: 1.85
GCUGUCACCGAGAAACUGUGAAGUAUAUCUUAAACCUGGGCACUUAAAAGAUAUAUGGAGUUAGUAGUGCAACCUGCUCGGUCUGAUGAGUCCUGAAGCGGACGAAACAGC: 1.83
GCUGUCACCGAGAAACUGUGAAGUAUAUCUUAAACCUGGGCACUUAAAAGAUAUAUGGAGUUAGUAGUGCAACCUGCUCGGUCUGAUGAGUCCAAUGAUGGACGAAACAGC: 1.76
GCUGUCACCGAGAAACUGUGAAGUAUAUCUUAAACCUGGGCACUUAAAAGAUAUAUGGAGUUAGUAGUGCAACCUGCUCGGUCUGAUGAGUCCCAGGGUGGACGAAACAGC: 1.82
GCUGUCACCGAGAAACUGUGAAGUAUAUCUUAAACCUGGGCACUUAAAAGAUAUAUGGAGUUAGUAGUGCAACCUGCUCGGUCUGAUGAGUCCUGAAGUGGACGAAACAGC: 1.79

Please report normalized RNA/DNA level with ligand (log10) for every entry that follows.
1. GCUGUCACCGAGAAACUGUGAAGUAUAUCUUAAACCUGGGCACUUAAAAGAUAUAUGGAGUUAGUAGUGCAACCUGCUCGGUCUGAUGAGUCCGUAUAAGGACGAAACAGC
2. GCUGUCACCGAGAAACUGUGAAGUAUAUCUUAAACCUGGGCACUUAAAAGAUAUAUGGAGUUAGUAGUGCAACCUGCUCGGUCUGAUGAGUCCUAAAUGGGACGAAACAGC
3. GCUGUCACCGAGAAACUGUGAAGUAUAUCUUAAACCUGGGCACUUAAAAGAUAUAUGGAGUUAGUAGUGCAACCUGCUCGGUCUGAUGAGUCCAUGUUAGGACGAAACAGC

1.69
1.83
1.73

Field: normalized RNA/DNA level with ligand (log10). Fill in for each record below.
1. GCUGUCACCGAGAAACUGUGAAGUAUAUCUUAAACCUGGGCACUUAAAAGAUAUAUGGAGUUAGUAGUGCAACCUGCUCGGUCUGAUGAGUCCGAUCAGGGACGAAACAGC
2. GCUGUCACCGAGAAACUGUGAAGUAUAUCUUAAACCUGGGCACUUAAAAGAUAUAUGGAGUUAGUAGUGCAACCUGCUCGGUCUGAUGAGUCCUUUAGCGGACGAAACAGC
3. GCUGUCACCGAGAAACUGUGAAGUAUAUCUUAAACCUGGGCACUUAAAAGAUAUAUGGAGUUAGUAGUGCAACCUGCUCGGUCUGAUGAGUCCUUAGAGGGACGAAACAGC

1.9
1.86
1.76

Field: normalized RNA/DNA level with ligand (log10). Fill in for each record below.
1. GCUGUCACCGAGAAACUGUGAAGUAUAUCUUAAACCUGGGCACUUAAAAGAUAUAUGGAGUUAGUAGUGCAACCUGCUCGGUCUGAUGAGUCCGCGCCUGGACGAAACAGC
2. GCUGUCACCGAGAAACUGUGAAGUAUAUCUUAAACCUGGGCACUUAAAAGAUAUAUGGAGUUAGUAGUGCAACCUGCUCGGUCUGAUGAGUCCAGAGGGGGACGAAACAGC
3. GCUGUCACCGAGAAACUGUGAAGUAUAUCUUAAACCUGGGCACUUAAAAGAUAUAUGGAGUUAGUAGUGCAACCUGCUCGGUCUGAUGAGUCCGAGUUUGGACGAAACAGC
4. GCUGUCACCGAGAAACUGUGAAGUAUAUCUUAAACCUGGGCACUUAAAAGAUAUAUGGAGUUAGUAGUGCAACCUGCUCGGUCUGAUGAGUCCGAAGUAGGACGAAACAGC
5. GCUGUCACCGAGAAACUGUGAAGUAUAUCUUAAACCUGGGCACUUAAAAGAUAUAUGGAGUUAGUAGUGCAACCUGCUCGGUCUGAUGAGUCCAGGAGAGGACGAAACAGC
6. GCUGUCACCGAGAAACUGUGAAGUAUAUCUUAAACCUGGGCACUUAAAAGAUAUAUGGAGUUAGUAGUGCAACCUGCUCGGUCUGAUGAGUCCAAAAGUGGACGAAACAGC
7. GCUGUCACCGAGAAACUGUGAAGUAUAUCUUAAACCUGGGCACUUAAAAGAUAUAUGGAGUUAGUAGUGCAACCUGCUCGGUCUGAUGAGUCCUGCUCAGGACGAAACAGC

1: 1.88; 2: 1.62; 3: 1.87; 4: 1.76; 5: 1.48; 6: 1.71; 7: 1.85
